Data provenance is the OPERA property sets (Mansouri et al. 2018).

Where a SMILES comes first, the peptide text is derived from it.
Attribute measured: logP
Write the number on its own, no unit after it.

If you can, please state the reported logP value of CC(C)CC(NC(=O)C(NC(=O)C1CCCN1C(=O)C(N)C(C)C)C(C)C)C(=O)O (centres undefined) (H-VPVL-OH; configuration not given here) .
-1.91

If you can, please state the reported logP value of CC(C)C(NC(=O)C(N)Cc1ccccc1)C(=O)NC(Cc1ccccc1)C(=O)O (stereo not drawn) (H-Phe-Val-Phe-OH; configuration not given here) .
-0.76

If you can, please state the reported logP value of O=C1CCC(=O)N1c1c(Cl)cccc1Cl .
0.57

If you can, please state the reported logP value of C=CCON=C(C)c1cccc(Oc2nc(OC)cc(OC)n2)c1C(=O)OC .
3.13

If you can, please state the reported logP value of O=[n+]1cnn([O-])c2ccccc21 .
-0.8

If you can, please state the reported logP value of CCC1OC(Cn2cncn2)(c2ccc(Cl)cc2Cl)OC1C (centres undefined) .
3.41

If you can, please state the reported logP value of CCCC(=NOCC)C1=C(O)CC2(CCC(CC(C)(C)C)CC2)OC1=O (centres undefined) .
5.3

If you can, please state the reported logP value of CCc1ccc2c(c1)OCCOCCOCCOCCOCCO2 .
0.98

If you can, please state the reported logP value of c1ccc(Cn2cccn2)cc1 .
1.78

If you can, please state the reported logP value of CC(=O)OC(C)(C)C1CCC2(C)CCCC3(CO3)C2C1 (centres undefined) .
4.08

If you can, please state the reported logP value of O=C1CNC(=O)C(Cc2c[nH]c3ccccc23)N1 (centres undefined) .
0.07

If you can, please state the reported logP value of CCCCN(CCCC)C1CCc2c(OC)cccc2C1C (centres undefined) .
5.61

If you can, please state the reported logP value of Nc1nnnn1-c1ccc(Cl)cc1 .
1.41

If you can, please state the reported logP value of CC(C)Oc1cccc2nc(N)nc(N)c12 .
2.05

###

Classification field: label 1 = logP at or over 2; label 0 = logP under 2.

Threshold query (logP >= 2) on COC(=O)c1ccc2ccc3cccc4ccc1c2c34
label 1

Threshold query (logP >= 2) on OC(CCCN1CCC(C(O)(c2ccccc2)c2ccccc2)CC1)c1ccccc1 (configuration not stated)
label 1

Threshold query (logP >= 2) on CCCN(CCCC(NC(C)=O)C(=O)NCc1ccccc1)C(=O)N(CCCl)N=O (configuration not stated)
label 0

Threshold query (logP >= 2) on C=CCNc1ncnc2nc[nH]c12
label 0

Threshold query (logP >= 2) on CCCCON=C(C)c1cccc(Oc2nc(OC)cc(OC)n2)c1C(=O)OC
label 1

Threshold query (logP >= 2) on COC(=O)Nc1c(C(C)C)cccc1C(C)C
label 1

###

Where a SMILES comes first, the peptide text is derived from it.
Classification field: Satisfied = logP at or over 2; Not satisfied = logP under 2.

Threshold query (logP >= 2) on Clc1ccc(N2CCN(CCCOn3nnc4ccccc43)CC2)cc1
Satisfied

Threshold query (logP >= 2) on CC1(C(=O)O)CSC(c2ccc(O)cc2O)=N1 (configuration not stated)
Not satisfied

Threshold query (logP >= 2) on NC(Cc1ccccc1)C(=O)NC(Cc1ccc(O)cc1)C(=O)O (stereo not drawn) (H-Phe-Tyr-OH; configuration not given here)
Not satisfied

Threshold query (logP >= 2) on Cc1nc2c3c(c(C(=O)NC4CC4)cn2c1C)CCC(c1ccccc1)O3 (configuration not stated)
Satisfied

Threshold query (logP >= 2) on Cc1ccc(C(=O)O)cc1[N+](=O)[O-]
Satisfied

Threshold query (logP >= 2) on CCN(CC)C(=O)COC(=O)c1cc(S(N)(=O)=O)c(Cl)cc1NCc1ccco1
Satisfied
